target: Serine/threonine-protein phosphatase 5 (Homo sapiens); assay: inhibition of PP5 cleaving OMFP – biochemical, fluorescence, single concentration, late-stage follow-up (AID 463222); conditions: PP5 OMFP dephosphorylation, at 6.7 µM, hits give high values

{"Compound": "CCOC(=O)c1cnc(-n2nc(C)cc2C)nc1NC(C)c1ccccc1 (stereo unspecified)", "Unit Spec": "%", "inhibition": 5.83}
{"Compound": "COc1cnc(-c2ccccn2)nc1Oc1cccc(Cl)c1", "Unit Spec": "%", "inhibition": 0.53}
{"Compound": "Oc1cccc(/C=N/Nc2cc(N3CCCC3)nc(N3CCCC3)n2)c1", "Unit Spec": "%", "inhibition": 9.26}
{"Compound": "COc1cnc(-c2ccccn2)nc1Sc1ccc(C)cc1", "Unit Spec": "%", "inhibition": 2.23}
{"Compound": "CCOC(=O)c1cnc(-n2cc(C)cn2)nc1NCc1ccc2c(c1)OCO2", "Unit Spec": "%", "inhibition": 2.2}
{"Compound": "O=C(O)c1cc(-c2ccc(Cl)c(Cl)c2)n(-c2ccccc2)n1", "Unit Spec": "%", "inhibition": -2.01}
{"Compound": "CCCCn1c(NC(=O)c2ccco2)c(C(=O)OCC)c2nc3ccccc3nc21", "Unit Spec": "%", "inhibition": 2.48}
{"Compound": "COc1ccc(OCCCC(=O)Nc2nc(-c3ccccn3)cs2)cc1", "Unit Spec": "%", "inhibition": 5.93}
{"Compound": "CCOC(=O)c1cnc(-n2nc(C)cc2C)nc1NC1CCCCC1", "Unit Spec": "%", "inhibition": 3.66}
{"Compound": "COc1ccc(Sc2nc(-c3ccccn3)ncc2OC)cc1", "Unit Spec": "%", "inhibition": 3.64}
{"Compound": "CC(C)(CS(=O)(=O)[O-])NC(=O)CC[N+](C)(C)CCO", "Unit Spec": "%", "inhibition": 0.86}

====

target: Serine/threonine-protein phosphatase 5 (Homo sapiens) (UniProt P53041); test: inhibition of PP5 cleaving OMFP – biochemical, fluorescence, single concentration, late-stage follow-up (AID 463222); conditions: PP5 OMFP dephosphorylation, at 6.7 µM, hits give high values
Sequence (P53041 whole entry, looked up): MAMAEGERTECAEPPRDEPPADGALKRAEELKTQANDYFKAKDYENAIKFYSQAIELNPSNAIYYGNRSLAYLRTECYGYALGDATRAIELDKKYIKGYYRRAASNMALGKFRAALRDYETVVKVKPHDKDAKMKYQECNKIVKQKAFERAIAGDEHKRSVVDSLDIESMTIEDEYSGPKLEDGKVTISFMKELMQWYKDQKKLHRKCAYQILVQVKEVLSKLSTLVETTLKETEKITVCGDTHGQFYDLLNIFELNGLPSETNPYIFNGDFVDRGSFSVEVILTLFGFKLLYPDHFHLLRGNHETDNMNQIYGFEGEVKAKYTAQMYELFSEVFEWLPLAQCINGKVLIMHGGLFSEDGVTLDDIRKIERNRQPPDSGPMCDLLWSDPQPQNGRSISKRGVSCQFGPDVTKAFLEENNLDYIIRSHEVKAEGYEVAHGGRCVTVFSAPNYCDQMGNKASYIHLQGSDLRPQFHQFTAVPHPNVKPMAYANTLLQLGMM

{"Compound": "Cc1nnc(NC(=O)C2C3C=CC(O3)C2C(=O)O)s1 (stereo unspecified)", "Unit Spec": "%", "inhibition": 22.3}
{"Compound": "COc1cnc(-c2ccccn2)nc1Sc1ccc(Cl)cc1", "Unit Spec": "%", "inhibition": 4.61}
{"Compound": "O=C(O)c1cc(-c2ccc(Cl)cc2)n(-c2cccc(Cl)c2)n1", "Unit Spec": "%", "inhibition": -5.16}
{"Compound": "COc1cnc(-c2ccccn2)nc1Oc1cccc(C(F)(F)F)c1", "Unit Spec": "%", "inhibition": -5.73}
{"Compound": "CCCCN(CC)c1nc(N)c2c(N)nc(OCC)cc2c1C#N", "Unit Spec": "%", "inhibition": 0.32}
{"Compound": "O=S(=O)(Cc1cc(NCc2ccccc2)nc(-c2ccccn2)n1)c1ccccc1", "Unit Spec": "%", "inhibition": 4.59}
{"Compound": "N#Cc1c(N2CCCC(O)C2)nc(N)c2c(N)nc3c(c12)CC(=O)N3C12CC3CC(CC(C3)C1)C2 (stereo unspecified)", "Unit Spec": "%", "inhibition": 2.54}
{"Compound": "COc1ccc2c(Cl)c(C(=O)N/N=C/c3ccc4c(c3)OCO4)sc2c1", "Unit Spec": "%", "inhibition": -2.37}
{"Compound": "CN1CCN(C(c2ccccn2)c2cc(Cl)c3cccnc3c2O)CC1 (stereo unspecified)", "Unit Spec": "%", "inhibition": 8.11}
{"Compound": "COc1cc(Br)c(C(=O)c2nccc3cc(OC)c(OC)cc23)cc1OC", "Unit Spec": "%", "inhibition": 1.12}
{"Compound": "CCOC(=O)c1cnc(-n2nc(C)cc2C)nc1NCc1ccccc1", "Unit Spec": "%", "inhibition": 3.84}

====

molecular target: Serine/threonine-protein phosphatase 5 (Homo sapiens) (UniProt P53041); assay: inhibition of PP5 cleaving OMFP – biochemical, fluorescence, single concentration, late-stage follow-up (AID 463222); details: PP5 OMFP dephosphorylation, at 6.7 µM, hits give high values
Overview of reported inhibition across a group of molecules:

{"Compound Structure String": "Nc1cc2nsnc2cc1Br", "Unit Spec": "%", "inhibition": 0.76}
{"Compound Structure String": "CCOC(=O)c1cnc(-n2nc(C)cc2C)nc1NCCc1ccccc1", "Unit Spec": "%", "inhibition": 6.83}
{"Compound Structure String": "CCOC(=O)c1nn(-c2ccc(C)cc2)c(=O)c2c(N)scc12", "Unit Spec": "%", "inhibition": -0.12}
{"Compound Structure String": "Cc1[nH]n(-c2ccccc2)c(=O)c1C(c1ccc([N+](=O)[O-])cc1)c1c(C)[nH]n(-c2ccccc2)c1=O", "Unit Spec": "%", "inhibition": -3.88}
{"Compound Structure String": "N#Cc1c(-c2ccc(Cl)cc2)cc(-c2cccs2)nc1SCC(=O)O", "Unit Spec": "%", "inhibition": -2.49}
{"Compound Structure String": "COc1cnc(-c2ccccn2)nc1Sc1ccccc1Cl", "Unit Spec": "%", "inhibition": 3.05}

====

Overview of reported inhibition across a group of compounds:
biological target: Serine/threonine-protein phosphatase 5 (Homo sapiens); experiment: inhibition of PP5 cleaving OMFP – biochemical, fluorescence, single concentration, late-stage follow-up (AID 463222); details: PP5 OMFP dephosphorylation, at 6.7 µM, hits give high values

{"Compound": "CCOc1ccc(NC(=S)Nc2ccc3nsnc3c2)cc1", "inhibition (%)": 3.93}
{"Compound": "Cc1ccc(C(=O)NNc2cc(N3CCCC3)nc(N3CCCC3)n2)cc1", "inhibition (%)": 8.52}
{"Compound": "COc1ccc(C(=O)c2nccc3cc(OC)c(OC)cc23)cc1OC", "inhibition (%)": 2.42}
{"Compound": "O=C1CCCC2=C1C1(O)C(=O)c3ccccc3C1(O)O2 (centres undefined)", "inhibition (%)": 9.53}
{"Compound": "CCOC(=O)c1sc2nc3c(SCC(=O)O)cc(C(=O)c4cc(F)ccc4O)cn3c(=O)c2c1C", "inhibition (%)": -0.13}
{"Compound": "COc1ccccc1Sc1nc(-c2ccccn2)ncc1OC", "inhibition (%)": -3.47}
{"Compound": "COc1cnc(-c2ccccn2)nc1Sc1cccc(Cl)c1", "inhibition (%)": 4.14}
{"Compound": "COc1ccc(NC(=O)C2C3CCC(O3)C2C(=O)O)c(OC)c1 (centres undefined)", "inhibition (%)": 51.1}
{"Compound": "CCn1c2ccccc2c2cc(NC(=O)COC(=O)c3ccc(NC(=O)CC#N)cc3)ccc21", "inhibition (%)": -3.03}
{"Compound": "COc1ccc(Cl)cc1C(=O)Nc1cccc(-c2ccc3nncn3n2)c1", "inhibition (%)": -0.16}
{"Compound": "COc1ccc(CN2C(=O)Cc3c2nc(N)c2c(N)nc(N4CCCCC4)c(C#N)c32)cc1", "inhibition (%)": 1.97}
{"Compound": "c1ccc(-c2nccc(-c3ccc(-n4cnc5ccccc54)cc3)n2)nc1", "inhibition (%)": 6.97}
{"Compound": "O=C(O)c1cc(-c2ccc(Cl)c(Cl)c2)n(-c2ccc(F)cc2)n1", "inhibition (%)": -3.2}
{"Compound": "O=c1[nH]c(Nc2ccccc2)cc2ccccc12", "inhibition (%)": 4.67}

====

molecular target: Serine/threonine-protein phosphatase 5 (Homo sapiens); experiment: inhibition of PP5 cleaving OMFP – biochemical, fluorescence, single concentration, late-stage follow-up (AID 463222); conditions: PP5 OMFP dephosphorylation, at 6.7 µM
Activity calls are given as the source filed them. The rule behind the calls is not given here.
Possible outcomes: active, inactive

{"Compound": "O=C(O)c1n[nH]nc1-c1ccccc1", "Class Assignment": "active"}
{"Compound": "COc1ccc(Cn2c(N)c(C(=O)NCc3ccco3)c3nc4ccccc4nc32)cc1OC", "Class Assignment": "inactive"}
{"Compound": "COc1ccc(NC(=S)Nc2ccc3nsnc3c2)cc1", "Class Assignment": "inactive"}
{"Compound": "Clc1ccc(-n2nnnc2-c2cnc(-c3ccccn3)nc2-c2cccs2)cc1", "Class Assignment": "inactive"}
{"Compound": "CC(=O)C(C(C)=O)C1(O)C(=O)c2ccccc2C1=O", "Class Assignment": "inactive"}
{"Compound": "CCOC(=O)C1=C(C)OC2(O)c3ccccc3C(=O)C12O (stereo not drawn)", "Class Assignment": "inactive"}
{"Compound": "O=C(NC1(O)C(=O)c2ccccc2C1=O)c1ccc(C(F)(F)F)cc1", "Class Assignment": "inactive"}
{"Compound": "COc1cnc(-c2ccccn2)nc1Sc1ccc(F)cc1", "Class Assignment": "inactive"}
{"Compound": "CCCN(CC1CC1)c1nc(N)c2c(N)nc(OC)cc2c1C#N", "Class Assignment": "inactive"}
{"Compound": "Nc1nc(-c2ccccn2)nc(N)c1Cc1ccc(Cl)cc1Cl", "Class Assignment": "inactive"}
{"Compound": "CCOC(=O)c1sc(N2C(=O)C(O)=C(C(=O)c3ccco3)C2c2cccc([N+](=O)[O-])c2)nc1C (stereo not drawn)", "Class Assignment": "inactive"}
{"Compound": "O=C(Nc1nc(-c2ccccn2)cs1)C1CC(=O)N(c2ccc3c(c2)OCCO3)C1 (stereo not drawn)", "Class Assignment": "inactive"}
{"Compound": "COc1cnc(-c2ccccn2)nc1Sc1ccccc1", "Class Assignment": "inactive"}
{"Compound": "Oc1ccc(/C=N/Nc2cc(N3CCOCC3)nc(N3CCOCC3)n2)c(O)c1", "Class Assignment": "inactive"}
{"Compound": "O=C(NC1(O)C(=O)c2ccccc2C1=O)c1c(Cl)cccc1Cl", "Class Assignment": "inactive"}
{"Compound": "Oc1ccccc1/C=N/Nc1cc(N2CCCC2)nc(N2CCCC2)n1", "Class Assignment": "inactive"}
{"Compound": "Cc1ccc(-n2nc(C(=O)O)cc2-c2ccc(Cl)cc2)cc1", "Class Assignment": "inactive"}
{"Compound": "Cc1cc(C)c(S(=O)(=O)/N=C2\\C=C(Sc3ncn[nH]3)C(=O)c3ccccc32)cc1C", "Class Assignment": "inactive"}
{"Compound": "Cc1ccc(C(=O)NC2(O)C(=O)c3ccccc3C2=O)cc1C", "Class Assignment": "inactive"}
{"Compound": "O=C(O)C1C2CCC(O2)C1C(=O)NC1CCCCC1 (stereo not drawn)", "Class Assignment": "active"}
{"Compound": "c1ccc(Nc2nc(-c3ccccn3)cs2)cc1", "Class Assignment": "inactive"}
{"Compound": "O=C1Nc2ccccc2N2CCCC12 (stereo not drawn)", "Class Assignment": "inactive"}
{"Compound": "O=C(NC1(O)C(=O)c2ccccc2C1=O)c1ccccc1", "Class Assignment": "inactive"}
